Recorded values, source the supplement of paper PMC7556523.

test system: Sporothrix brasiliensis CBS 133006; experiment: growth inhibition relative to untreated control; higher = more growth inhibition (more antifungal activity), active = 80 or more; extreme values may be limits of the assay; conditions: 1 µM; 48 h
RECORDED_ENDPOINT: growth inhibition (%)

1. COc1cc(CN2CCC3(C=Cc4ccccc43)CC2)cc2c1OCO2; 4.25
2. N=C(N)c1ccc(-c2cc(-c3ccccc3)on2)cc1; 7
3. O=C(Nc1c(O)cccc1-c1nc2c(C(=O)O)cccc2o1)c1cc(-c2ccccc2)on1; 38.2
4. COC(=O)c1cccc2oc(-c3cccc(OC)c3NC(=O)c3cc(-c4ccccc4)on3)nc12; 7.5
5. Cc1cc(Cl)ccc1NC(=O)CCc1ccc(S(=O)(=O)NCC(C)C)cc1; 9.75
6. CCOc1ccccc1C(=O)Nc1cccc(-c2nc3ncccn3c2C)c1; 6.75
7. c1ccc(Oc2ccc(-c3cc(N4CCOCC4)[nH]n3)cc2)cc1; 4.25
8. c1ccc(-c2nc(NC3CCCCC3)cc(C3CC3)n2)nc1; 16.8
9. COC(=O)c1c(NC(=O)c2c(F)c(F)c(F)c(F)c2F)sc2c1CCCCC2; 13.8
10. CC1CCCCN1C(=O)NCCc1coc(-c2ccc(F)cc2)n1 (stereo not drawn); 11
11. Cc1cc(C(=O)Nc2ccc(-c3ccccc3)cc2)no1; 1.75
12. CS(=O)(=O)c1cccc(-c2cnc3[nH]cc(-c4ccc(CCC(=O)O)cc4)c3c2)c1; 4.25
13. CCN(CC)CCCCCCNc1cc(OC)cc2c(C)ccnc12; 7
14. Nc1ncnc2c1ncn2[C@@H]1O[C@H](COS(=O)(=O)NC(=O)c2ccccc2O)[C@@H](O)[C@H]1O; 5.25
15. CC(=O)NC[C@@H]1CN(c2ccc(N3CCOCC3)c(F)c2)C(=O)O1; 1.75
16. CCc1nc2ccc(Cl)cn2c1C(=O)NCc1ccc(N2CCC(c3ccc(OC(F)(F)F)cc3)CC2)cc1; 10.2
17. Cc1nn2c(O)c3c(nc2c1-c1ccc(F)cc1)CCCC3; 7
18. COc1ccc(C(=N)N)cc1-c1cn(-c2ccc(C(=N)N)cc2)nn1; 51.8
19. CC1COC2(CCN(c3nc(=O)c4cc(C(F)(F)F)cc([N+](=O)[O-])c4s3)CC2)O1 (stereo not drawn); 15
20. NCCCC(N)(C(=O)O)C(F)F (stereo not drawn); 13.5
21. CC(C(=O)N1CCCC1)N1CCN(S(=O)(=O)c2ccc(C(C)(C)C)cc2)CC1 (stereo not drawn); 37.5
22. N#Cc1nc(-c2ccccc2F)oc1NCCc1ccccc1; 3.75
23. CC(C)(C)c1cc(C(=O)N2CCN(c3nccnc3C#N)CC2)n(Cc2ccccc2)n1; 25.8
24. Cc1cccc(NC(=O)c2cc(S(=O)(=O)N(C)c3ccc(F)cc3)ccc2Cl)n1; 4.25
25. CC(Oc1ccccc1)C(=O)Nc1nc(-c2ccccn2)cs1 (stereo not drawn); 18
26. COc1cc(OC)cc(C(=O)NCC2Cc3cc(Cl)cc(-c4ccncc4)c3O2)c1 (stereo not drawn); 17.5
27. N=C(N)Nc1ccc(-c2ccc(-c3ccc(N=C(N)N)c(Cl)c3)o2)cc1Cl; 1.75
28. COc1ccc(C2=NCCN2)cc1-c1cn(-c2cccc(C3=NCCN3)c2)nn1; 12.8
29. O=C(c1ccco1)N(CCCn1ccnc1)c1nc2c(Cl)cccc2s1; 6
30. COc1ccc(Cn2cnc3c(-c4ccco4)nc(Cl)nc32)cc1; 15.8
31. C[C@H](c1ccc2c(c1)CCCC2)N(C)c1ncc2c(N)nc(N)nc2n1; 10
32. Cc1c[nH]c(CCNC(=O)c2cc(-c3ccc(Cl)cc3)cs2)n1; 4
33. COc1ccc2nc(C)cc(OCC(=O)Nc3ccccc3OC)c2c1; 6
34. O=C(Nc1cccnc1)c1c(O)c2cccc3c2n(c1=O)CC3; 19.5
35. O=C(Nc1ccnc(-c2cccnc2)n1)c1cc(C(F)(F)F)cc(C(F)(F)F)c1; 2.5
36. CCN(CC)CCCN1CCN(C(=O)c2cccc(-c3noc(C(F)(F)F)n3)c2)CC1; 25
37. NCC(=O)N1CCn2c(nc(-c3ccccc3)c2Nc2ccc3c(c2)OCO3)C1; 0
38. CC(C)/N=c1\cc2n(-c3ccc(Cl)cc3)c3ccccc3nc-2cc1Nc1ccc(Cl)cc1; 7.25
39. CC(C)(C)c1ccc(N[C@@H]2CCCC[C@H]2NC(=O)c2ccco2)cc1; 7.25
40. CCc1ccc(S(=O)(=O)Nc2cc(CN3CCN(CCC(C)C)CC3)ccc2C)cc1; 1.75
41. Cn1c(=O)c2c(S(C)(=O)=O)snc2n(C)c1=O; 9
42. CCOC(=O)NC(=O)c1ccsc1NC(=O)c1nc2ccccc2s1; 32.8
43. COc1ccc(N(CCc2cccc(C)n2)C(C)=O)cc1; 0

----------
tested on: Sporothrix schenckii ATCC 32286; test: growth inhibition relative to untreated control; higher = more growth inhibition (more antifungal activity), active = 80 or more; extreme values may be limits of the assay; conditions: 1 µM; 48 h
I would appreciate it if you labelled entries TRUE when growth inhibition is 4% or higher, otherwise FALSE.

1. CCCCc1ccc(NC(=O)Nc2ccc(O[C@H]3CCCC[C@@H]3N(C)c3ccccc3)c(F)c2)cc1; TRUE
2. CCOc1ccccc1C(=O)Nc1cccc(-c2nc3ncccn3c2C)c1; TRUE
3. CC(=O)Nc1ccc(NC(=O)c2cc(-c3cc(Cl)ccc3O)n[nH]2)cc1; FALSE
4. CCC(=O)Nc1ccccc1C(=O)Nc1ccccn1; FALSE
5. CS(=O)(=O)c1cccc(-c2cnc3[nH]cc(-c4ccc(CCC(=O)O)cc4)c3c2)c1; FALSE
6. O=C(Nc1ccc(N2CCNCC2)cc1)c1ccn2ncc(-c3cccc(Cl)c3)c2n1; TRUE
7. CC(=O)OCC1OC([S-])C(OC(C)=O)C(OC(C)=O)C1OC(C)=O.CCP(CC)CC.[Au+] (centres undefined); TRUE
8. Cc1nn(C(=O)Nc2cccc(C(F)(F)F)c2)c(C)c1Sc1ncccn1; TRUE
9. COc1nc2ccc(Br)cc2cc1[C@@H](c1ccccc1)[C@@](O)(CCN(C)C)c1cccc2ccccc12; TRUE
10. O=C(NCc1ccoc1)N1CCN(Cc2ccc3c(c2)OCO3)CC1; TRUE
11. COc1ccccc1C(C)NCC(=O)Nc1cc(C(F)(F)F)ccc1Cl (centres undefined); FALSE
12. COC(=O)c1c(NC(=O)c2cc3ccccc3oc2=O)sc2c1CCN(Cc1ccccc1)C2; TRUE
13. COc1cccc(-n2nnnc2S(C)(=O)=O)c1; TRUE
14. COc1ccc(Nc2ccccc2NC(=O)c2ccc(O)nc2)cc1; TRUE
15. O=C(NCc1nnc2n1CCCCC2)c1ccc(-c2ccc(F)cc2)o1; FALSE
16. COc1ccc(CN2CCOc3ccc(C(C)(O)CN(C)C)cc3C2)cc1C (centres undefined); TRUE
17. O=C(c1ccc(F)cc1)N(CCNc1ccccc1)c1ccccc1; TRUE
18. O=C(CN1CCOCC1)Nc1ccc2ncnc(Nc3ccc(OCc4cccc(F)c4)c(Cl)c3)c2c1; TRUE
19. Cn1ncc2c(N3CCOCC3)nc(NCCc3c[nH]c4ccccc34)nc21; FALSE
20. CN(C)c1cc(NC(=O)Nc2ccccc2)c2ccccc2n1; FALSE
21. CNC(=O)c1cc(S(=O)(=O)N2CCN(c3ccccn3)CC2)cs1; TRUE
22. O=C(C1CCCCC1)N1CC(=O)N2CCc3ccccc3C2C1 (centres undefined); TRUE
23. CCc1ccccc1-n1c(C)cn2c3c(=O)n(C(C(=O)OC)C(C)C)c(=O)n(C)c3nc12 (centres undefined); FALSE
24. Clc1ccc(CCNc2cc(-c3ccccc3)nc3ncnn23)cc1; TRUE
25. Nc1nc(N)c2c3c(sc2n1)CN(Cc1ccccc1)CC3; TRUE
26. CC(=O)N(CCN(C(=O)c1ccc(F)cc1)c1ccccc1)c1ccccc1; FALSE
27. O=C(Nc1ccc(N2CCNCC2)nc1)c1oc(-c2ccccc2)nc1C(F)(F)F; TRUE
28. CCCCS(=O)(=O)Nc1ccc2cnn(C)c2c1; FALSE
29. CC1=Nc2ccc(Cl)cc2C(c2ccccc2)N1CCNC(=O)CN(C)C (centres undefined); FALSE
30. COc1cc(OC)cc(C(=O)NCC2Cc3cc(Cl)cc(-c4ccncc4)c3O2)c1 (centres undefined); FALSE
31. CC(C)C(C(=O)Nc1ccc(S(=O)(=O)N(C)C)cc1)c1ccc(Cl)cc1 (centres undefined); FALSE
32. O=C(c1ccc(NCCO)cc1)C1C[C@H]1c1ccc(Cl)cc1 (some centres undefined); TRUE
33. Brc1c(-c2ccc3c(c2)OCO3)nc2ncccn12; TRUE
34. CC1CC1C(=O)NC1CCN(CC2(c3ccccc3)CCCCC2)CC1 (centres undefined); TRUE
35. CC(=O)N1CCN(c2ccc(Oc3ccc(Cl)cc3O)cc2)CC1; FALSE
36. NC(=O)c1cc(Br)ccc1OCCOc1ccccc1; FALSE
37. CCC(C)NC(=O)c1ccc(NC(=O)C2(c3ccccc3)CCCC2)cc1 (centres undefined); TRUE
38. CCOc1ccccc1NC(C)C(=O)Nc1cc(C(F)(F)F)ccc1N1CCOCC1 (centres undefined); FALSE
39. CNc1nnc(Sc2cnn(-c3ccccc3)c(=O)c2Cl)s1; FALSE
40. COc1cccc(NC(=O)c2c(NC(=O)c3cccnc3)sc3c2CCC3)c1; TRUE
41. CC(C)(C)c1cc(C(=O)N2CCN(c3nccnc3C#N)CC2)n(Cc2ccccc2)n1; TRUE
42. COc1cc(CN2CCC3(C=Cc4ccccc43)CC2)cc2c1OCO2; FALSE
43. Cc1cc(Cl)ccc1NC(=O)CCc1ccc(S(=O)(=O)NCC(C)C)cc1; FALSE
